Assay: Time of maximum plasma concentration (Tmax) was determined in rats after intraduodenal administration of the drug.
Type: ADME, organism-based
Details: rat
Below, each entry is listed alongside its reported Tmax.
Give the number; min is assumed, so skip it.

Examples with their reported Tmax follow.
mol: Cc1c(O)cccc1C(=O)N[C@@H](Cc1ccccc1)[C@H](O)C(=O)N1CSC(C)(C)[C@H]1C(=O)NC(C)(C)C
observed: 30
//
mol: CCc1c(O)cccc1C(=O)N[C@@H](Cc1ccccc1)[C@H](O)C(=O)N1CSC(C)(C)[C@H]1C(=O)NC(C)(C)C
observed: 30
//
mol: Cc1ccccc1CNC(=O)[C@@H]1CSCN1C(=O)[C@@H](O)[C@H](Cc1ccccc1)NC(=O)c1cccc(O)c1C
observed: 30

May I ask what Tmax has been recorded for `CCc1c(O)cccc1C(=O)N[C@@H](Cc1ccccc1)[C@H](O)C(=O)N1CSC(C)(C)[C@H]1C(=O)NCc1ccccc1C` ?
10

Please do the same for `Cc1c(O)cccc1C(=O)N[C@@H](Cc1ccccc1)[C@H](O)C(=O)N1CSC[C@H]1C(=O)NC(C)(C)C` as well.
30

Now consider `CCc1c(O)cccc1C(=O)N[C@@H](Cc1ccccc1)[C@H](O)C(=O)N1CSC[C@H]1C(=O)NC(C)(C)C` .
30

# repeat for `Cc1ccccc1CNC(=O)[C@H]1N(C(=O)[C@@H](O)[C@H](Cc2ccccc2)NC(=O)c2cccc(O)c2C)CSC1(C)C`
60

* * *

Experiment: Volume of distribution (Vdss) was determined in dogs after intravenous administration of 25 mg/kg of the compound.
Format: ADME, organism-based, Canis lupus familiaris
Parameters: dose 25 mg/kg, route intravenous
Settings: dog, in vivo, read-out: Vdss
reportedProperty: Vd (L/kg)
# unit: L/kg | format: bare number

Data request, read-out Vd, for `Cc1ccccc1CNC(=O)[C@H]1N(C(=O)[C@@H](O)[C@H](Cc2ccccc2)NC(=O)c2cccc(O)c2C)CSC1(C)C`
1.58

* * *

Test: Maximum plasma concentration (Cmax) was determined in dogs fed after oral administration of 25 mg/kg of the compound.
Type: ADME, organism-based, Canis lupus familiaris
Set-up: dose 25 mg/kg, route oral
Conditions: dog
reportedProperty: Cmax (µM)
State the answer as a number, implicitly in µM.

Find the recorded Cmax belonging to `Cc1ccccc1CNC(=O)[C@H]1N(C(=O)[C@@H](O)[C@H](Cc2ccccc2)NC(=O)c2cccc(O)c2C)CSC1(C)C` and report it.
4.02

* * *

Experiment: Time of maximum plasma concentration (Tmax) was determined in fasted dogs after oral administration of 25 mg/kg of the compound.
Assay type: ADME, organism-based, Canis lupus familiaris
Design: dose 25 mg/kg, route oral
Settings: dog
reportedProperty: Tmax (h)
I only need the number, in h, no unit after it.

Could you share which Tmax value was measured for `Cc1ccccc1CNC(=O)[C@H]1N(C(=O)[C@@H](O)[C@H](Cc2ccccc2)NC(=O)c2cccc(O)c2C)CSC1(C)C` ?
1

* * *

Assay: Bioavailability in rat after i.d. administration
Assay type: ADME, organism-based
Conditions: in vivo
reportedProperty: bioavailability
Write the numeric value and follow it with the unit.

What value of bioavailability has been reported for the following molecule? `CCc1c(O)cccc1C(=O)N[C@@H](Cc1ccccc1)[C@H](O)C(=O)N1CSC(C)(C)[C@H]1C(=O)NCc1ccccc1C`
10%

Please do the same for `CCc1c(O)cccc1C(=O)N[C@@H](Cc1ccccc1)[C@H](O)C(=O)N1CSC(C)(C)[C@H]1C(=O)NC(C)(C)C` as well.
37%

Would you kindly repeat that for `Cc1ccccc1CNC(=O)[C@@H]1CSCN1C(=O)[C@@H](O)[C@H](Cc1ccccc1)NC(=O)c1cccc(O)c1C` ?
32.3%

The reported numbers originate from ChEMBL document CHEMBL1132212.
